Data provenance: patent US11214803B2

Provide the reported Complement C3 of each item.
PROTOCOL: Cynomolgus monkey tolerability, pro-inflammatory proteins analysis, Complement C3 and CRP (Example 34)
Type: in vivo
TEST_PARAMETERS: cynomolgus monkeys, 35 mg/kg subcutaneously, Day 42 (pre-dose)
One number for each entry, in mg/dL.

Examples with their reported Complement C3 follow.
For the substance 1076453 (GTAATATTGCAATCTG; 3-10-3 cEt gapmer, further chemistry not given here) [compound 1076453] , what Complement C3 is on record?
101

For the substance 1198623 (CTAAGTAAGGTTTCCC; modified gapmer, further chemistry not given here) [compound 1198623] , what Complement C3 is on record?
105

For the substance 1198831 (CACTTTTACATTAGGA; chemically modified gapmer, further chemistry not given here) [compound 1198831] , what Complement C3 is on record?
81

Parameters: items (list). Returns: Complement C3 for each item.
1. 1198439 (AGTGTATGTCAGAAGA; sugar, 5-methylcytosine, phosphorothioate modifications, further chemistry not given here) [compound 1198439]
2. 1198440 (AAGTGTATGTCAGAAG; cEt, 2'-MOE, 5-methylcytosine, phosphorothioate modifications, further chemistry not given here) [compound 1198440]
3. 1198728 (TATTAGAGTATGTGGC; modified gapmer, further chemistry not given here) [compound 1198728]
4. 1197270 (TTAAAGTGTATGTCAG; cEt gapmer with 2'-OMe nucleoside, phosphorothioate, further chemistry not given here) [compound 1197270]
5. 958499 (ATTAGAGTATGTGGCA; 3-10-3 cEt gapmer, further chemistry not given here) [compound 958499]
6. 1198605 (GTAATATTGCAATCTG; modified gapmer, further chemistry not given here) [compound 1198605]
7. 1198872 (TGTATGTCAGAAGAGT; chemically modified gapmer, further chemistry not given here) [compound 1198872]

[99, 95, 93, 103, 112, 105, 103]

---

Provide the reported % UTC (Yap1 mRNA) of each item.
Tested on: Yap1 mRNA
PROTOCOL: Dose-dependent inhibition of human Yap1 in A-431 cells (Example 8, 10,000 cells per well, RTS4814)
Format: cell-based
TEST_PARAMETERS: 31.3 nM; A-431 cells
Strand notation (5' to 3'): a small letter for the sugar, then the base; units joined by * are phosphorothioate-linked, units joined directly phosphodiester-linked; [ ] holds rarer units or linkages, { } end groups; capitals alone tell only the bases. k = constrained ethyl (cEt); [5mC] = 5-methylcytosine; d = 2'-deoxy (DNA)
Numbers only, in % UTC.

Examples with their reported % UTC (Yap1 mRNA) follow.
For the substance 1074229 (antisense kG*kA*kA*dG*dA*d[5mC]*dT*dG*dT*d[5mC]*dG*dA*dA*kG*kA*kT) [compound 1074229] , what % UTC (Yap1 mRNA) is on record?
58

For the substance 1076534 (kA*k[5mC]*kT*dA*dT*dA*dA*dA*dG*d[5mC]*dA*dA*dT*kG*k[5mC]*kG; antisense) [compound 1076534] , what % UTC (Yap1 mRNA) is on record?
88

Continue with the substance presented below.
For the substance 1075893 (antisense k[5mC]*kG*kT*dG*dA*dA*dA*dA*dA*dG*dA*dT*dG*kT*kG*kG) [compound 1075893] , what % UTC (Yap1 mRNA) is on record?
80

---

Provide the reported cell proliferation (luminescence) % UTC of each item.
System: SCC25 cells
PROTOCOL: Cell proliferation assay in SCC25 cells, CellTiter-Glo (Example 25)
Format: cell-based, human
TEST_PARAMETERS: 0.04 μM, free uptake, 144 hours
Answers are plain numbers, in % UTC.

Examples with their reported cell proliferation (luminescence) % UTC follow.
Reported cell proliferation (luminescence) % UTC for SCC25 cells, given 1076453 (GTAATATTGCAATCTG; 3-10-3 cEt gapmer, further chemistry not given here) [compound 1076453] ?
81

Reported cell proliferation (luminescence) % UTC for SCC25 cells, given 1198728 (TATTAGAGTATGTGGC; modified gapmer, further chemistry not given here) [compound 1198728] ?
88

Parameters: items (list). Returns: cell proliferation (luminescence) % UTC for each item.
1. 1198872 (TGTATGTCAGAAGAGT; chemically modified gapmer, further chemistry not given here) [compound 1198872]
2. 958499 (ATTAGAGTATGTGGCA; 3-10-3 cEt gapmer, further chemistry not given here) [compound 958499]
3. 1197270 (TTAAAGTGTATGTCAG; cEt gapmer with 2'-OMe nucleoside, phosphorothioate, further chemistry not given here) [compound 1197270]
4. 1198623 (CTAAGTAAGGTTTCCC; modified gapmer, further chemistry not given here) [compound 1198623]

[82, 76, 75, 84]

---

Provide the reported YAP1 (% UT) of each item.
System: Yap1 mRNA
PROTOCOL: Antisense inhibition of human Yap1 in SNU-449 cells by modified oligonucleotides, single dose (Example 5, RTS36584)
Format: cell-based
TEST_PARAMETERS: Table 48; Yap1 mRNA level relative to untreated control; modified oligonucleotides targeting SEQ ID NO.: 1 and 2
Strand notation (5' to 3'): a small letter for the sugar, then the base; units joined by * are phosphorothioate-linked, units joined directly phosphodiester-linked; [ ] holds rarer units or linkages, { } end groups; capitals alone tell only the bases. e = 2'-O-(2-methoxyethyl) (MOE); k = constrained ethyl (cEt); [5mC] = 5-methylcytosine; d = 2'-deoxy (DNA)
Numbers only, in % UT.

Examples with their reported YAP1 (% UT) follow.
For the substance 1198284 (kT*kG*kT*d[5mC]*dT*d[5mC]*dA*dT*dG*d[5mC]*d[5mC]*dT*kT*eA*kT*eA; antisense) [Compound 1198284] , what YAP1 (% UT) is on record?
27

For the substance 1198327 (kT*kT*kT*dA*dG*dG*dA*dT*dG*d[5mC]*dA*dT*kG*eG*kT*eT; antisense) [Compound 1198327] , what YAP1 (% UT) is on record?
29

Parameters: items (list). Returns: YAP1 (% UT) for each item.
1. 1198294 (kA*kG*kA*dG*dT*dA*dT*dG*dT*dG*dG*d[5mC]*kA*eA*kT*eA; antisense) [Compound 1198294]
2. 1197199 (antisense kA*kT*kA*dT*dG*dG*dT*dT*dT*dT*dG*dT*dG*kT*kG*kT) [Compound 1197199]
3. 1074461 (kG*kA*kA*dA*dT*dT*dG*dT*d[5mC]*dT*d[5mC]*dA*dT*kG*k[5mC]*k[5mC]) [Compound 1074461]

[13, 75, 20]

---

Tested on: Yap1 mRNA
PROTOCOL: Antisense inhibition of human Yap1 in SNU-449 cells by modified oligonucleotides, single dose (Example 5, RTS36584)
Format: cell-based
TEST_PARAMETERS: Table 41; SNU-449 cells, 10,000 cells per well, free uptake, 2,000 nM modified oligonucleotide, approximately 48 hours; RTS36584; normalized to RIBOGREEN; Yap1 mRNA relative to untreated control cells
Strand notation (5' to 3'): a small letter for the sugar, then the base; units joined by * are phosphorothioate-linked, units joined directly phosphodiester-linked; [ ] holds rarer units or linkages, { } end groups; capitals alone tell only the bases. e = 2'-O-(2-methoxyethyl) (MOE); k = constrained ethyl (cEt); [5mC] = 5-methylcytosine; d = 2'-deoxy (DNA)
Each entry gets -1 if its YAP1 (% UTC) stays under 40 % UTC, and 1 if its YAP1 (% UTC) is 40 % UTC or above.

See these solved cases before continuing.
I'd appreciate it if you could say whether 1198734 (kA*eG*kG*dT*dA*dT*dA*dA*d[5mC]*dT*dG*dG*eG*e[5mC]*kA*kA; antisense) [Compound 1198734] has YAP1 (% UTC) at least equal to 40 % UTC.
-1

I'd appreciate it if you could say whether 1198675 (antisense k[5mC]*kA*dG*dA*dT*dT*dT*dA*dG*dG*dA*dT*kG*e[5mC]*kA*eT) [Compound 1198675] has YAP1 (% UTC) at least equal to 40 % UTC.
-1

I'd appreciate it if you could say whether 1198634 (kT*kG*dG*dA*dA*dA*dT*dT*dG*dT*d[5mC]*dT*k[5mC]*eA*kT*eG; antisense) [Compound 1198634] has YAP1 (% UTC) at least equal to 40 % UTC.
-1

I'd appreciate it if you could say whether 1198677 (antisense kA*kT*dT*d[5mC]*dA*dG*dA*dT*dT*dT*dA*dG*kG*eA*kT*eG) [Compound 1198677] has YAP1 (% UTC) at least equal to 40 % UTC.
1

Turning to the following substance.
I'd appreciate it if you could say whether 1198687 (antisense kA*kT*dT*dG*d[5mC]*dA*dA*dT*d[5mC]*dT*dG*dT*k[5mC]*eT*kG*eA) [Compound 1198687] has YAP1 (% UTC) at least equal to 40 % UTC.
1
